Tested on: estrogen-responsive reporter gene, ERE-tk109-Luc
Assay: Inhibition of E2-induced transcription, ERE-tk109-Luc reporter in MCF-7 cells
Assay type: cell-based
Details: Homo sapiens, MCF7; read-out: Inhibition of E2-induced transcription in breast cells, IC50
readout-type: pIC50
Please note pIC50 is a logarithmic value: minus log10 of concentration in mol/L. Answer with that number alone.

Lookup result for C[C@@H]1Cc2c([nH]c3ccccc23)[C@@H](c2c(F)cc(/C=C/C(=O)O)cc2F)N1CC(C)(C)F ; measured pIC50: 8.89

----------
Test system: AP activity in ECC-1 cells
Assay: Alkaline phosphatase (AP) assay in ECC-1 uterine cells, agonist mode
Assay type: cell-based, human
Conditions: ECC-1 cells, without E2
Protocol: Method for performing the alkaline phosphatase (AP) assay. ECC-1 cells were trypsinized and resuspended in hormone-depleted media and plated at a density of 15k cells per well into a 96-well plate for at least 4 hours. Cells were treated with antiestrogens for 3 days and plates were subsequently frozen at −80° C. Thawed plates were incubated with a chromogenic substrate of AP, p-nitrophenyl phosphate (Thermo Fisher Scientific), for 40 minutes at 40° C. and absorbances were read at 405 nm. […]
AP Agonist Act. (% of E2) values by entry

Worked examples follow.
CCCN1CC(Oc2ccc([C@@H]3c4[nH]c5ccccc5c4C[C@@H](C)N3CC(C)(C)F)cc2F)C1; 3.96 % of E2
C[C@@H]1Cc2c([nH]c3ccccc23)[C@@H](c2ccc(OCCN3CC(CF)C3)cc2)N1CC(C)(C)F; 3.1 % of E2

The molecule listed as C[C@@H]1Cc2c([nH]c3ccccc23)[C@@H](c2c(F)cc(OCCN3CC(CF)C3)cc2F)N1CC(C)(C)F [Compound D, reference compound] has a reported AP Agonist Act. (% of E2) of 3.37 % of E2

Entry C[C@@H]1Cc2c([nH]c3ccccc23)[C@@H](c2c(F)cc(/C=C/C(=O)O)cc2F)N1CC(C)(C)F , AP Agonist Act. (% of E2) reported as 35 % of E2

AP Agonist Act. (% of E2) in this record for CCCN1CC(Oc2ccc([C@@H]3c4[nH]c5ccccc5c4C[C@@H](C)N3CC(C)(C)F)cc2)C1 : 2.18 % of E2
